readout_type: melting point

- compound: "COC(=O)c1c[nH]c(Cl)c1"
  readout_type: "melting point"
  assay_value: "92 °C"
- compound: "CCOC(=O)c1cc2c(o1)CNCC2(O)c1ccc(C)cc1 (stereo not given)"
  readout_type: "melting point"
  assay_value: "194 to 196 °C"
- compound: "CCCN1CCC(C2=C(C#N)C(c3cccc4nonc34)c3c[nH]nc3N2)CC1 (stereo not given)"
  readout_type: "melting point"
  assay_value: "246 °C"
- compound: "c1ccc(-c2ccc(-c3nc4n(n3)CCCc3ccccc3-4)cc2)cc1"
  readout_type: "melting point"
  assay_value: "135 to 137 °C"
- compound: "COc1cc2c(c3c1OC(C)(C)C3)C(c1cccc(N(CC(N)=O)S(C)(=O)=O)c1)=NC(C)(C)C2"
  readout_type: "melting point"
  assay_value: "190 to 191 °C"
- compound: "NC(=O)N1CCN(c2nn(-c3ccccc3)c3cc(F)ccc23)CC1"
  readout_type: "melting point"
  assay_value: "168 to 170 °C"
- compound: "C[C@H](CN1CC(C#N)C1)NC(=O)c1c[nH]c2ncc(-c3nn(C)c4cc(Cl)ccc34)nc12"
  readout_type: "melting point"
  assay_value: "235 to 238 °C"
- compound: "CCOC(=O)NN1CCN(CCCCC(=O)c2ccccc2)CC1"
  readout_type: "melting point"
  assay_value: "105 to 106 °C"
- compound: "O=C(C1CC1)N1CC2CC2(c2ccccc2)C1 (stereo not given)"
  readout_type: "melting point"
  assay_value: "164 to 165 °C"
- compound: "Cc1cc(-c2cc(C(F)(F)F)nc(-c3cccc(-c4ccc(S(N)(=O)=O)s4)c3)n2)ccc1C(F)(F)F"
  readout_type: "melting point"
  assay_value: "216 °C"
- compound: "Nc1nc(-c2cc(Cl)ccc2Cl)nc(N2CCSCC2)n1"
  readout_type: "melting point"
  assay_value: "239 to 241 °C"
- compound: "Cc1cccc(Nc2cc(Nc3ccc(O)cc3)ncn2)c1"
  readout_type: "melting point"
  assay_value: "242 to 245 °C"
- compound: "CC(C)(C)OC(=O)N[C@@H]1C(=O)N(CCOCc2ccccc2)c2ccccc2-c2ccccc21"
  readout_type: "melting point"
  assay_value: "132 to 134 °C"
- compound: "Cn1ncnc1COc1nn2c(-c3ccccc3)nnc2cc1-c1ccc(Cl)s1"
  readout_type: "melting point"
  assay_value: "244 to 247 °C"
- compound: "Cc1c(C)c2ccc(OCC(O)CN3CCC(NC(=O)c4ccccc4)CC3)cc2oc1=O (stereo not given)"
  readout_type: "melting point"
  assay_value: "178 to 180 °C"
- compound: "Sc1nc(-c2ccc3c(c2)OCO3)c(-c2ccc3c(c2)OCO3)[nH]1"
  readout_type: "melting point"
  assay_value: "282 to 283 °C"
- compound: "OCCOc1cccc(-c2n[nH]c3c2Cc2ccccc2-3)c1"
  readout_type: "melting point"
  assay_value: "203 to 205 °C"
- compound: "CC(C)(C)N(NC(=O)c1ccccn1)C(=O)c1ccccc1[N+](=O)[O-]"
  readout_type: "melting point"
  assay_value: "137 to 140 °C"
- compound: "N#Cc1cc(Br)c(O)c(Cc2cc(F)cc(Cc3cc(C#N)cc(Br)c3O)c2O)c1"
  readout_type: "melting point"
  assay_value: "240 °C"
- compound: "CCOC(=O)CC(=O)CCCn1cncn1"
  readout_type: "melting point"
  assay_value: "114 to 116 °C"
